Consider the following variants and their measured normalized RNA/DNA level with ligand (log10) readings.
B1: library; a variant is named by its letters at N, in order (parent)
chain: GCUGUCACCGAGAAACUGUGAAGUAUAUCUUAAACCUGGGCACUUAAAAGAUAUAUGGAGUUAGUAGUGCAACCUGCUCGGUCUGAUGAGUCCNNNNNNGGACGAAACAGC

Variants of: B1
Assay Notes: normalized RNA/DNA level with ligand (relative to sTRSVctl = 100) (log10 (% of sTRSVctl)); HEK293T; ligand: cyclic di-GMP (c-di-GMP-II aptamer); ligand concentration (+) RNA-Seq: 1 mM; higher = less ribozyme self-cleavage, higher mRNA level
Condition Label: reporter: mCherry (pCS4076), ligand present: yes
Quick one: just the number, no unit, thanks!

Example variants with recorded normalized RNA/DNA level with ligand (log10):
> print(dat)
   mutation.spec  value.observed
1         GUAGUC            1.55
2         CUCGGG            1.88
3         CUGCUU            1.76
4         AACGAG            1.71
5         GUAAUA            1.73
6         UGGGCC            1.97
7         AGCUUU            1.85
8         CACUCU            1.77

Request: Which normalized RNA/DNA level with ligand (log10) reading was recorded for the variant AGGGUC ?
Result: 1.85

Request: Which normalized RNA/DNA level with ligand (log10) reading was recorded for the variant CGAUUU ?
Result: 1.64

Request: Which normalized RNA/DNA level with ligand (log10) reading was recorded for the variant GGCUUG ?
Result: 1.85
